Molecular target: TLR7/NFKb HEK cells (Homo sapiens)
Sequence (Q9NYK1 27-1049): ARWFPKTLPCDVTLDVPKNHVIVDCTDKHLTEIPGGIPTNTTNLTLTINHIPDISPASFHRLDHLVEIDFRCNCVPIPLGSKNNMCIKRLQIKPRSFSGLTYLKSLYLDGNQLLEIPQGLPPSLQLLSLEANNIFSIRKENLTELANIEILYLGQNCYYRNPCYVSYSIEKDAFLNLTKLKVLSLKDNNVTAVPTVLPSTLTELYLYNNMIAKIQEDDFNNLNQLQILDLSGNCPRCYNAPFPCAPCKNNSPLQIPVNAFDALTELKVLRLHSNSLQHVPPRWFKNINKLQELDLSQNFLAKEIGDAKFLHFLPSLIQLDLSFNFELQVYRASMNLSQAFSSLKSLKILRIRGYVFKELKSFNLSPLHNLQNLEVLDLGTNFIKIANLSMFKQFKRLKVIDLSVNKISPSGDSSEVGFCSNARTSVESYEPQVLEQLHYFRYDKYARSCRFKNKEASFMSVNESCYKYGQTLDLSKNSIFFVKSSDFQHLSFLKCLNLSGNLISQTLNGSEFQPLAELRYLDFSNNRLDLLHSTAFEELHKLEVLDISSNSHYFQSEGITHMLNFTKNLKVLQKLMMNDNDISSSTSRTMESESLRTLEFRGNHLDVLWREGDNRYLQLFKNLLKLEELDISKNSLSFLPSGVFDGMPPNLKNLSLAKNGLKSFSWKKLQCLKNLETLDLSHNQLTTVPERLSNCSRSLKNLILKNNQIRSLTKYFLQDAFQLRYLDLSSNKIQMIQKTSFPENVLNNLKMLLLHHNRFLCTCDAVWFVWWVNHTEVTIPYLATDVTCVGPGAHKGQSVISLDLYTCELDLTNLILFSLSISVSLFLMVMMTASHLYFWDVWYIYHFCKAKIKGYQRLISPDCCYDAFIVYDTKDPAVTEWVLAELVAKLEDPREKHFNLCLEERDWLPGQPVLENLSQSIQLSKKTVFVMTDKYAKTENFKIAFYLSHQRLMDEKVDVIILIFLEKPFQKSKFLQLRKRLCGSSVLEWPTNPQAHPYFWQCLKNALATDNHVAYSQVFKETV
Experiment: HEK Cell Assay (TLR7/NFKb reporter, Steady-Glo luciferase readout)
Details: 30 min compound preincubation, then R*48 agonist for 5 hours, read-out: Potency
pIC50: −log10 of the molar value. Counter-ions that a name gives are not always drawn.
# pIC50 per entry

{"COMPOUND": "O=C(CN1CCC1)NCC1CCN(c2ccnc3nccnc23)CC1", "pIC50": "5.00 to 6.00"}
{"COMPOUND": "N#Cc1ccc(N2CC(NC(=O)C(N)C3CC3)CC(C(F)(F)F)C2)c2cccnc12 (single isomer, unassigned) [Compound 487]", "pIC50": "> 6.00"}
{"COMPOUND": "CC(C)[C@H](O)C(=O)NC1CC(C(F)(F)F)CN(c2ccc(C#N)c3nccnc23)C1 (single isomer, unassigned) [Compound 87]", "pIC50": "> 6.00"}
{"COMPOUND": "N#Cc1ccc(N2C[C@@H](NC(=O)CC(F)(F)F)C[C@@H](C(F)(F)F)C2)c2cccnc12 (relative stereo)", "pIC50": "> 6.00"}
{"COMPOUND": "C[C@H]1C[C@@H](NC(=O)CN2CC(N)C2)CN(c2ccc(C(F)F)c3ncccc23)C1", "pIC50": "> 6.00"}
{"COMPOUND": "C[C@H]1C[C@@H](NC(=O)C(N)C(F)(F)F)CN(c2ccc(C(F)(F)F)c3ncccc23)C1 (single isomer, unassigned) [Compound 197]", "pIC50": "5.00 to 6.00"}
{"COMPOUND": "N#Cc1ccc(N2CC(NC(=O)CCC(=O)N3CCC3)CC(C(F)(F)F)C2)c2cccnc12 (single isomer, unassigned) [Compound 495]", "pIC50": "5.00 to 6.00"}
{"COMPOUND": "CC1CC(C(=O)NCC2CCN(C)CC2)CN(c2ccc(C#N)c3nccnc23)C1 (stereo not shown)", "pIC50": "> 6.00"}
{"COMPOUND": "COc1ccc(N2C[C@@H](C)C[C@@H](NC(=O)CN(C)C)C2)c2cccnc12", "pIC50": "5.00 to 6.00"}
{"COMPOUND": "Cc1ncc(N2C[C@@H](C)C[C@@H](NC(=O)[C@@H](N)C3CC3)C2)c2cccnc12", "pIC50": "> 6.00"}
{"COMPOUND": "C[C@H]1C[C@@H](NC(=O)CNS(C)(=O)=O)CN(c2ccc(C(F)(F)F)c3ncccc23)C1", "pIC50": "5.00 to 6.00"}
{"COMPOUND": "CCCN1CCN(C[C@H]2CN(c3ccnc4nccnc34)C[C@@H](C)O2)CC1", "pIC50": "> 6.00"}
{"COMPOUND": "C[C@H]1C[C@@H](NC(=O)C(N)C(F)(F)F)CN(c2ccc(C(F)(F)F)c3ncccc23)C1 (single isomer, unassigned) [Compound 198]", "pIC50": "> 6.00"}
{"COMPOUND": "CC(C)(C)CC(=O)N[C@H]1C[C@@H](C2CC2)CN(c2ccc(C#N)c3nccnc23)C1 (relative stereo)", "pIC50": "5.00 to 6.00"}
{"COMPOUND": "C[C@H]1C[C@@H](NC(=O)C2(C)COC2)CN(c2ccc(C#N)c3nccnc23)C1", "pIC50": "5.00 to 6.00"}
{"COMPOUND": "CC(C)[C@H](O)C(=O)N[C@@H]1C[C@H](C)CN(c2ccnc3nccnc23)C1", "pIC50": "5.00 to 6.00"}
{"COMPOUND": "CCC(C)C(=O)N[C@@H]1C[C@H](C)CN(c2ccnc3nccnc23)C1 (single isomer, unassigned) [Compound 156]", "pIC50": "< 5.00"}
{"COMPOUND": "C[C@H]1C[C@@H](NC(=O)CC(O)C(C)(C)C)CN(c2ccc(C#N)c3nccnc23)C1 (single isomer, unassigned) [Compound 146]", "pIC50": "> 6.00"}
{"COMPOUND": "CCN(CC)C(=O)CCC(=O)N[C@@H]1C[C@H](C)CN(c2ccc(C(F)(F)F)c3ncccc23)C1", "pIC50": "5.00 to 6.00"}
{"COMPOUND": "CC(C)C(=O)NC1CCN(C[C@H]2CN(c3ccnc4nccnc34)C[C@@H](C)O2)CC1", "pIC50": "5.00 to 6.00"}
{"COMPOUND": "C[C@H]1C[C@@H](NC(C)(C)CO)CN(c2ccc(C(F)(F)F)c3nccnc23)C1", "pIC50": "5.00 to 6.00"}
{"COMPOUND": "C[C@H]1C[C@@H](NC2CCN(C)C2=O)CN(c2ccc(C(F)(F)F)c3nccnc23)C1 (single isomer, unassigned) [Compound 352]", "pIC50": "> 6.00"}
{"COMPOUND": "C[C@H]1C[C@@H](NC(=O)CN2CCN(C)CC2)CN(c2ccc(C(F)(F)F)c3nccnc23)C1", "pIC50": "> 6.00"}
{"COMPOUND": "CNCC(=O)N[C@@H]1C[C@H](C)CN(c2ccc(C#N)c3nccnc23)C1 [Compound 28, hydrochloride]", "pIC50": "> 6.00"}
{"COMPOUND": "C[C@H]1C[C@@H](NC(=O)C2CCN(C)C2)CN(c2ccc(C(F)(F)F)c3ncccc23)C1 (stereo partly shown)", "pIC50": "> 6.00"}
{"COMPOUND": "N#Cc1ccc(N2C[C@@H](NC(=O)CC3(N)CCCCC3)C[C@@H](C(F)(F)F)C2)c2cccnc12 (racemic) [Compound 479, hydrochloride]", "pIC50": "> 6.00"}
{"COMPOUND": "C[C@H]1C[C@@H](NC(=O)CN2CCCN(C)CC2)CN(c2ccc(C(F)F)c3ncccc23)C1", "pIC50": "> 6.00"}
{"COMPOUND": "CCN(CC)CC(=O)N(C)CC1CCN(c2ccnc3nccnc23)CC1", "pIC50": "5.00 to 6.00"}
